molecular target: human OT7T175 (metastin receptor) (human, UniProt Q969F8 1-398); test: cell-based or functional assay
Sequence (Q969F8 whole entry L364H): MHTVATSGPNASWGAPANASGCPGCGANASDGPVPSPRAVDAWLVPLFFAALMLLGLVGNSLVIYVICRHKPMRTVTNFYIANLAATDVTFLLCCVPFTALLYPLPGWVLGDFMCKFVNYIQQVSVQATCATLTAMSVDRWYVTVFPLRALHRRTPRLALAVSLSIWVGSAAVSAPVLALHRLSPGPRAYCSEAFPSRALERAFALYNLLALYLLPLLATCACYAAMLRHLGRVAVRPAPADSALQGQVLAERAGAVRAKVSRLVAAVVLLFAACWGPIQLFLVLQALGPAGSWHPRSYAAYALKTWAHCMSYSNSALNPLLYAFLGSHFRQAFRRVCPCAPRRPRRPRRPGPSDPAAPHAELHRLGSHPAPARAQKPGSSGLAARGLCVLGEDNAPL
Square brackets hold non-standard residues; d marks the D form. Ends that are not written are not given here. Arg(Me) = CNC(=N)NCCC[C@H](N)C(=O)O; 4Pal = N[C@@H](Cc1ccncc1)C(=O)O; d4Pal = N[C@H](Cc1ccncc1)C(=O)O; azaGly = NNC(=O)O
cell growth inhibition activity, IC50 below 70 nM gives no (0); cell growth inhibition activity, IC50 at or above it gives yes (1).

binder="[dY]NWNSFGL[Arg(Me)]F-NH2 [Compound No. 141: [D-Tyr1,Arg(Me)9]MS10]" group="yes (1)"
binder="[dY]N[4Pal]NSF[azaGly]L[Arg(Me)]F-NH2 [Compound No. 286: [D-Tyr1,Pya(4) 3,AzaGly7,Arg(Me)9]MS10]" group="no (0)"
binder="[dY][dN][4Pal]NSF[azaGly]L[Arg(Me)]F-NH2 [Compound No. 303: [D-Tyr1,D-Asn2,Pya(4) 3,AzaGly7,Arg(Me)9]MS10]" group="no (0)"
binder="[dY][d4Pal]NSF[azaGly]L[Arg(Me)]F-NH2 (N-terminus assumed; SMILES CNC(=N)NCCC[C@H](NC(=O)[C@H](CC(C)C)NC(=O)NNC(=O)[C@H](Cc1ccccc1)NC(=O)[C@H](CO)NC(=O)[C@H](CC(N)=O)NC(=O)[C@@H](Cc1ccncc1)NC(=O)[C@H](N)Cc1ccc(O)cc1)C(=O)N[C@@H](Cc1ccccc1)C(N)=O, also called KiSS305; KiSS1-305) [Compound No. 305: des(1)-[D-Tyr2,D-Pya(4) 3,AzaGly7,Arg(Me)9]MS10]" group="no (0)"
